- protocol-details: Single dose PK (SDPK) study, oral suspension
- Format: in vivo, Wistar Han rat
- condition: male, plasma; PO 200 mg/kg, Wistar Han rat, n = 5; read-out: Cmax of Compound (I) (double prodrug) in plasma
experimental-readout: Cmax (ng/mL)
Your answer is read as ng/mL, so omit the unit and give the number.

Problem: Return the recorded Cmax value; entry: CC[C@H](OC(C)=O)[C@@H]1C[C@@H](O)[C@H](n2c(=O)sc3cnc(N)nc32)O1 [Form C of compound (I)]
Result: 259

----------
- protocol-details: Physical stability of solid forms in stability chamber, solid form checked by XRPD
- Type: physicochemical
- condition: comparison in words; accelerated storage 40° C./75%-RH
experimental-readout: Stability compared with Form Amorphous

> print(dat)
                                   molecule                    experimental.readout     readout.value
1  CC[C@H](OC(C)=O)[C@@H]1C[C@@H](O)[C@H](n2c(=O)sc3cnc(N)nc32)O1 [Form B of compound (I)]  Stability compared with Form Amorphous  better stability
2  CC[C@H](OC(C)=O)[C@@H]1C[C@@H](O)[C@H](n2c(=O)sc3cnc(N)nc32)O1 [Form A of compound (I)]  Stability compared with Form Amorphous  better stability

----------
- protocol-details: Apparent solubility study in bio-relevant media
- Type: physicochemical
- condition: pH 1 buffer, 25 °C, pH 1, simulated gastric fluid, thermodynamic from solid, pH1 buffer, 24 hours
experimental-readout: solubility at 24 h

Problem: Return the recorded solubility at 24 h value; entry: CC[C@H](OC(C)=O)[C@@H]1C[C@@H](O)[C@H](n2c(=O)sc3cnc(N)nc32)O1 [Form Amorphous of compound (I)]
Result: > 10000 µg/mL

----------
- protocol-details: Single dose PK (SDPK) study, oral suspension
- Assay type: in vivo, Wistar Han rat
- condition: male, plasma; PO 200 mg/kg, Wistar Han rat, n = 5; read-out: Tmax of Compound (I) (double prodrug) in plasma
experimental-readout: Tmax (min)
Your answer is read as min, so omit the unit and give the number.

Problem: Return the recorded Tmax value; entry: CC[C@H](OC(C)=O)[C@@H]1C[C@@H](O)[C@H](n2c(=O)sc3cnc(N)nc32)O1 [Form C of compound (I)]
Result: 19.8

----------
- protocol-details: Single dose PK (SDPK) study, oral suspension
- Format: in vivo, Wistar Han rat
- condition: male, plasma; PO 100 mg/kg, Wistar Han rat, n = 5; read-out: Tmax of Compound (I) (double prodrug) in plasma
experimental-readout: Tmax (h)
Your answer is read as h, so omit the unit and give the number.

Problem: Return the recorded Tmax value; entry: CC[C@H](OC(C)=O)[C@@H]1C[C@@H](O)[C@H](n2c(=O)sc3cnc(N)nc32)O1 [Form A of compound (I)]
Result: 1.5

----------
- protocol-details: Apparent solubility study in bio-relevant media
- Assay type: physicochemical
- condition: SGF, 25 °C, simulated gastric fluid, thermodynamic from solid, 24 hours
experimental-readout: solubility at 24 h

Problem: Return the recorded solubility at 24 h value; entry: CC[C@H](OC(C)=O)[C@@H]1C[C@@H](O)[C@H](n2c(=O)sc3cnc(N)nc32)O1 [Form Amorphous of compound (I)]
Result: > 10000 µg/mL
